- tgt: SV2A (Macaca mulatta, UniProt H9EQH8)
- Sequence (H9EQH8 1-742): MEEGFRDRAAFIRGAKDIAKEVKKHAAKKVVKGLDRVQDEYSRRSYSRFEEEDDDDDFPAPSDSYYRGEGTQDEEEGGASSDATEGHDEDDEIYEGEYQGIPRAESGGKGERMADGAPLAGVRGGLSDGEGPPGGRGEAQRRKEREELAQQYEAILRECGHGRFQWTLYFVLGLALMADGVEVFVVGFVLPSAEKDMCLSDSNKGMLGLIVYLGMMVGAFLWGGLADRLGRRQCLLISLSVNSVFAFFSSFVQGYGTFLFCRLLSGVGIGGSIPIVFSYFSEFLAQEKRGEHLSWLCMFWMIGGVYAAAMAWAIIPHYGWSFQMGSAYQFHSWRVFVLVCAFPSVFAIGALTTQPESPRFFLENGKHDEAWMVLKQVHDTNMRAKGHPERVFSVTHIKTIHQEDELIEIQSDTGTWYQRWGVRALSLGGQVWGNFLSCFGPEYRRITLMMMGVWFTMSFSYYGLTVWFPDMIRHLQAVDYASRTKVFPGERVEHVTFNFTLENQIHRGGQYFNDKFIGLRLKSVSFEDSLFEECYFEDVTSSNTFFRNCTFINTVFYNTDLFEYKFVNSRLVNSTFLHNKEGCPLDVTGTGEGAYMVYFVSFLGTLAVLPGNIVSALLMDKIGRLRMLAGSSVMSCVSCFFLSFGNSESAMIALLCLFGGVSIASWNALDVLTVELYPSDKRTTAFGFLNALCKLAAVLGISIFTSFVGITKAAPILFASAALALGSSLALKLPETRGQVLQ
- method-description: PET imaging studies in rhesus monkeys
- measurement-conditions: Pons; from VT, centrum semiovale as reference region
reported-endpoint: Binding potential (BPND)
One number for each entry.

# molecule, Binding potential (BPND)
measured = [
    ("Cc1cnccc1CN1CC(c2cc(F)cc(F)c2)CC1=O (stereo not shown) [^18F-5]", 0.80),
]

// each molecule listed below needs its Binding potential (BPND)
1. O=C1CC(c2cc(F)c(F)c(F)c2)CN1Cc1ccncc1F (stereo not shown) [^18F-10]
2. Cc1cnccc1CN1CC(c2cc(F)c(F)c(F)c2)CC1=O (single isomer, unassigned) [^11C-3]

Response given:
[0.04, 0.75]

// each molecule listed below needs its Binding potential (BPND)
1. Cc1cnccc1CN1CC(c2cc(F)c(F)c(F)c2)CC1=O (stereo not shown) [^18F-3]
2. Cc1cnccc1CN1CC(c2cccc(F)c2)CC1=O (stereo not shown) [^18F-11]
3. Cc1cnccc1CN1CC(c2ccc(F)c(F)c2)CC1=O (stereo not shown) [^18F-4]
4. O=C1CC(c2cccc(F)c2)CN1Cc1ccncc1 (stereo not shown) [^18F-12]

Response given:
1: 0.80; 2: 0.46; 3: 0.73; 4: −0.09

----------
- tgt: SV2A (Macaca mulatta, UniProt H9EQH8)
- method-description: PET imaging studies in rhesus monkeys
- measurement-conditions: Brainstem; from VT, centrum semiovale as reference region
Please assign Not met whenever Binding potential (BPND) is at or above 0.6, and Met whenever it is below.

Example results:
# molecule, answer-label
rows = [
    ("Cc1cnccc1CN1CC(c2cccc(F)c2)CC1=O (stereo not shown) [^18F-11]", "Met"),
    ("Cc1cnccc1CN1CC(c2cc(F)c(F)c(F)c2)CC1=O (single isomer, unassigned) [^11C-3]", "Not met"),
    ("Cc1cnccc1CN1CC(c2cc(F)c(F)c(F)c2)CC1=O (stereo not shown) [^18F-3]", "Not met"),
]

Challenge: Answer whether the molecule O=C1CC(c2cccc(F)c2)CN1Cc1ccncc1 (stereo not shown) [^18F-12] has Binding potential (BPND) strictly less than 0.6
Response given: Met

Challenge: For Cc1cnccc1CN1CC(c2ccc(F)c(F)c2)CC1=O (stereo not shown) [^18F-4] then?
Response given: Not met

Challenge: For O=C1CC(c2cc(F)c(F)c(F)c2)CN1Cc1ccncc1F (stereo not shown) [^18F-10] then?
Response given: Met

----------
- method-description: PET imaging studies in rhesus monkeys
- measurement-conditions: rhesus monkey, in vivo, Distribution volume (VT), Pons; 1T model
Exercise: state measured Kp for each of the compounds provided.

Some solved entries appear below for comparison.
# compound, Kp
data = [
    ("Cc1cnccc1CN1CC(c2cccc(F)c2)CC1=O (stereo not drawn) [^18F-11]", 6.4),
    ("O=C1CC(c2cc(F)c(F)c(F)c2)CN1Cc1ccncc1F (stereo not drawn) [^18F-10]", 10.5),
]

Proceed to the following item.
Challenge: Sample Cc1cnccc1CN1CC(c2cc(F)cc(F)c2)CC1=O (stereo not drawn) [^18F-5] — what was its Kp?
Response given: 14.9

----------
- method-description: PET imaging studies in rhesus monkeys
- measurement-conditions: rhesus monkey, in vivo, Distribution volume (VT), Thalamus; 1T model
Exercise: state measured Kp for each of the molecules provided.
Give bare numbers.

// each molecule listed below needs its Kp
1. Cc1cnccc1CN1CC(c2cc(F)cc(F)c2)CC1=O (stereo not drawn) [^18F-5]
2. O=C1CC(c2cc(F)c(F)c(F)c2)CN1Cc1ccncc1F (stereo not drawn) [^18F-10]
3. Cc1cnccc1CN1CC(c2cccc(F)c2)CC1=O (stereo not drawn) [^18F-11]

Response given:
1. 32.7
2. 12
3. 13.2

Taken from patent US11518754B2.
